Data credit: ChEMBL document CHEMBL3046449

Test: Phytotoxicity against Oryza sativa (rice) assessed as growth inhibition under greenhouse at 5 g/ha measured after 18 days by preemergence activity assay
Format: organism-based
Conditions: in vivo, read-out: GI
METRIC: inhibition at 432 h

COMPOUND	METRIC	RESULT VALUE
CCCOC(=O)c1cnn(C)c1S(=O)(=O)NC(=O)Nc1nc(OC)cc(OC)n1	inhibition at 432 h	< 5%
CCOC(=O)c1cn[nH]c1S(=O)(=O)NC(=O)Nc1nc(OC)cc(OC)n1	inhibition at 432 h	5%
CCOC(=O)c1c(OC)nn(C)c1S(=O)(=O)NC(=O)Nc1nc(OC)cc(OC)n1	inhibition at 432 h	< 5%
CCOC(=O)c1c([N+](=O)[O-])nn(C)c1S(=O)(=O)NC(=O)Nc1nc(OC)cc(OC)n1	inhibition at 432 h	5%
COc1cc(OC)nc(NC(=O)NS(=O)(=O)c2c(C)cnn2C)n1	inhibition at 432 h	< 5%
CCOC(=O)c1cnn(C)c1S(=O)(=O)NC(=O)Nc1nc(OC)nc(OC)n1	inhibition at 432 h	5%
CCOC(=O)c1c(C(F)(F)F)nn(C)c1S(=O)(=O)NC(=O)Nc1nc(OC)cc(OC)n1	inhibition at 432 h	< 5%
CCOC(=O)c1c(CC)nn(C)c1S(=O)(=O)NC(=O)Nc1nc(OC)cc(OC)n1	inhibition at 432 h	< 5%
CCCCn1ncc(C(=O)OCC)c1S(=O)(=O)NC(=O)Nc1nc(OC)cc(OC)n1	inhibition at 432 h	< 5%
CCCCOC(=O)c1cnn(C)c1S(=O)(=O)NC(=O)Nc1nc(OC)cc(OC)n1	inhibition at 432 h	< 5%
CCC(=O)c1cnn(C)c1S(=O)(=O)NC(=O)Nc1nc(OC)cc(OC)n1	inhibition at 432 h	< 5%
CCOC(=O)c1nn(C)c(S(=O)(=O)NC(=O)Nc2nc(OC)cc(OC)n2)c1C(=O)OCC	inhibition at 432 h	< 5%
CCOC(=O)c1c(Cl)nn(C)c1S(=O)(=O)NC(=O)Nc1nc(OC)cc(OC)n1	inhibition at 432 h	< 5%
COc1cc(OC)nc(NC(=O)NS(=O)(=O)c2c(C#N)cnn2C)n1	inhibition at 432 h	< 5%
COc1cc(OC)nc(NC(=O)NS(=O)(=O)c2c(Br)cnn2C)n1	inhibition at 432 h	< 5%
COC(=O)c1cnn(C)c1S(=O)(=O)NC(=O)Nc1nc(OC)cc(OC)n1	inhibition at 432 h	< 5%
CCOC(=O)c1cnn(C)c1S(=O)(=O)NC(=O)Nc1nc(C)cc(OC)n1	inhibition at 432 h	< 5%
CCOC(=O)c1cnn(C)c1S(=O)(=O)NC(=O)Nc1nc(OC)cc(OC)n1 [PYRAZOSULFURON ETHYL]	inhibition at 432 h	< 5%
COc1cc(OC)nc(NC(=O)NS(=O)(=O)c2c(C(=O)O)cnn2C)n1	inhibition at 432 h	< 5%
CCOC(=O)c1cnn(-c2ccccc2)c1S(=O)(=O)NC(=O)Nc1nc(OC)cc(OC)n1	inhibition at 432 h	< 5%
CCOC(=O)c1cnn(C)c1S(=O)(=O)NC(=O)Nc1nc(C)cc(C)n1	inhibition at 432 h	5%
CCOC(=O)c1c(C)nn(C)c1S(=O)(=O)NC(=O)Nc1nc(OC)cc(OC)n1	inhibition at 432 h	< 5%
COc1cc(OC)nc(NC(=O)NS(=O)(=O)c2c(C(=O)N(C)C)cnn2C)n1	inhibition at 432 h	< 5%
CCOC(=O)c1cnn(CC)c1S(=O)(=O)NC(=O)Nc1nc(OC)cc(OC)n1	inhibition at 432 h	5%
COc1cc(OC)nc(NC(=O)NS(=O)(=O)c2c(S(=O)(=O)N(C)C)cnn2C)n1	inhibition at 432 h	> 90%
COc1cc(OC)nc(NC(=O)NS(=O)(=O)c2c([N+](=O)[O-])cnn2C)n1	inhibition at 432 h	< 5%
